Biological target: EEF2K (human)
Test: radiometric filter-binding kinase assay
Conditions: compound 0.1 µM
Outcome measure: residual activity (%)

>>> print(df.to_string())
                           structure_smiles    outcome_measure  unit_info  reported_measurement
0  O=C(O)c1ccc(-c2c[nH]c3ncc(-c4ccccc4)cc23)cc1C1CCCC1  residual activity          %                   120
1                Cn1c(=O)c2c(ncn2C)n(C)c1=O  residual activity          %                    88
2  NC(=O)c1cc(-c2ccnc(NC3CCCCC3)c2)nc(N2CCNCC2)c1  residual activity          %                   105
3  O=C(Nc1nc2cc(C(F)(F)F)cc(NC3CC3)n2n1)c1cccnc1  residual activity          %                   118

Hey, just so you know, these numbers are from the kinase profiling compilation of Christmann-Franck et al. (2016).
